B1: TRAF3IP2 (parent)
chain: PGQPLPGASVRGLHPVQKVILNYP

Variants of: B1
Test: protein stability index of a GFP-peptide fusion (GPS, HEK-293T) (PSI 1-6); higher = more stable;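 note: lentivirally expressed fusions sorted by FACS into six bins by GFP to DsRed ratio, PSI derived from sequencing read proportions per bin multiplied by bin number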
Conditions: c terminus: a fixed tail appended
Measurement Label: protein stability index
Give bare numbers.

Use these answered entries as a reference point.
Mutation Annotation	protein stability index
P15H	3.08
Q3P	3.57
I20M	3.42
L5Y	3.48
A8E	3.36
I20C	3.25
P15N	2.92
K18P	2.99

Record protein stability index for all entries; do not skip any.
1. Q17T
2. L13D

[2.81, 3.68]
